- ASSAY_COMMENT: Genotoxicity in Salmonella typhimurium TA98 assessed as number of revertant at 200 ug by AMES test (reference value: 8 to 8.3)
- Format: toxicity, Salmonella enterica subsp. enterica serovar Typhimurium
- TEST_CONTEXT: in vivo; dose 200 µg
OUTCOME_MEASURE: Activity
Reply briefly: the number, and no unit.

{"MOLECULE": "Cc1cc(C)c(C)c(OCCN[C@@H]2CCCC[C@H]2O)c1 (racemic)", "OUTCOME_MEASURE": "Activity", "MEAS_VALUE": 6.7}
{"MOLECULE": "Cc1cccc(C)c1OCCOCCNC1CCC(O)CC1.Cl (stereo not given)", "OUTCOME_MEASURE": "Activity", "MEAS_VALUE": 9.3}
{"MOLECULE": "Cc1cc(C)c(C)c(OCCCN2CCC(O)CC2)c1", "OUTCOME_MEASURE": "Activity", "MEAS_VALUE": 11}
{"MOLECULE": "Cc1cc(C)c(C)c(OCCOCCN[C@H]2CCCC[C@@H]2O)c1.Cl (racemic)", "OUTCOME_MEASURE": "Activity", "MEAS_VALUE": 11}

Let's switch to this molecule now.
In: Fill blank: measured Activity of the molecule Cc1ccc(OCCCN2CCCC(O)C2)c(C)c1 (racemic) is ____.
Out: 6.7

* * *

- ASSAY_COMMENT: Genotoxicity in Salmonella typhimurium TA100 assessed as mutagenic index at 75 ug by AMES test
- Assay type: toxicity, Salmonella enterica subsp. enterica serovar Typhimurium
- TEST_CONTEXT: in vivo; dose 75 µg
OUTCOME_MEASURE: Activity_index
Please state the value as a number alone, without comment.

Completed entries (count: 4):
{"MOLECULE": "Cc1cc(C)c(C)c(OCCOCCN[C@H]2CCCC[C@@H]2O)c1.Cl (racemic)", "Activity_index": 1.1}
{"MOLECULE": "Cc1ccc(OCCCN2CCCC(O)C2)c(C)c1 (racemic)", "Activity_index": 1}
{"MOLECULE": "Cc1cccc(C)c1OCCOCCNC1CCC(O)CC1.Cl (stereo not given)", "Activity_index": 4.3}
{"MOLECULE": "Cc1cc(C)c(C)c(OCCCN2CCC(O)CC2)c1", "Activity_index": 0.8}

In: Name the recorded Activity_index for Cc1cc(C)c(C)c(OCCN[C@@H]2CCCC[C@H]2O)c1 (racemic) .
Out: 1.4

* * *

- Tested on: Escherichia coli
- ASSAY_COMMENT: Antimicrobial activity against Escherichia coli ATCC 35218 assessed as reduction in bacterial growth at 0.195 to 100 ug/ml by serial dilution method
- Assay type: organism-based
- TEST_CONTEXT: in vivo, dose 0.195-100 µg/ml
OUTCOME_MEASURE: Activity

{"COMPOUND": "Cc1ccc(OCCCCN[C@H](C)CO)c(C)c1", "OUTCOME_MEASURE": "Activity", "MEAS_VALUE": "Non-Toxic"}
{"COMPOUND": "Cc1cc(C)c(OCCCN2CCCC(O)C2)c(C)c1.Cl (racemic)", "OUTCOME_MEASURE": "Activity", "MEAS_VALUE": "Non-Toxic"}
{"COMPOUND": "Cc1ccc(OCCOCCN[C@H](C)CO)c(C)c1", "OUTCOME_MEASURE": "Activity", "MEAS_VALUE": "Non-Toxic"}
{"COMPOUND": "Cc1cc(C)c(C)c(OCCCN2CCC(O)CC2)c1", "OUTCOME_MEASURE": "Activity", "MEAS_VALUE": "Non-Toxic"}

* * *

- ASSAY_COMMENT: Genotoxicity in Salmonella typhimurium TA100 assessed as mutagenic index at 200 ug by AMES test
- Format: toxicity, Salmonella enterica subsp. enterica serovar Typhimurium
- TEST_CONTEXT: in vivo; dose 200 µg
Reported Activity_index values are given for each entry in this list.

Use these answered entries as a reference point.
{"COMPOUND": "Cc1cc(C)c(C)c(OCCCN2CCC(O)CC2)c1", "Activity_index": 0.7}
{"COMPOUND": "Cc1cccc(C)c1OCCOCCNC1CCC(O)CC1.Cl (stereo not given)", "Activity_index": 0.8}

In: Requested field: Activity_index. Item: Cc1ccc(OCCCN2CCCC(O)C2)c(C)c1 (racemic)
Out: 1.2

In: GET /values?readout=Activity_index&item= Cc1cc(C)c(C)c(OCCOCCN[C@H]2CCCC[C@@H]2O)c1.Cl (racemic)
Out: 1

In: Entry Cc1cc(C)c(C)c(OCCN[C@@H]2CCCC[C@H]2O)c1 (racemic) has what Activity_index?
Out: 0.7

* * *

- ASSAY_COMMENT: Genotoxicity in Salmonella typhimurium TA98 assessed as mutagenic index at 500 ug by AMES test
- Format: toxicity, Salmonella enterica subsp. enterica serovar Typhimurium
- TEST_CONTEXT: in vivo; dose 500 µg
OUTCOME_MEASURE: Activity_index
Would you mind answering with just the numeric figure?

{"MOLECULE": "Cc1cc(C)c(C)c(OCCOCCN[C@H]2CCCC[C@@H]2O)c1.Cl (racemic)", "MEAS_VALUE": 1.1}
{"MOLECULE": "Cc1cc(C)c(C)c(OCCN[C@@H]2CCCC[C@H]2O)c1 (racemic)", "MEAS_VALUE": 1.1}
{"MOLECULE": "Cc1cc(C)c(C)c(OCCCN2CCC(O)CC2)c1", "MEAS_VALUE": 0.8}
{"MOLECULE": "Cc1ccc(OCCCN2CCCC(O)C2)c(C)c1 (racemic)", "MEAS_VALUE": 1}

Here's the next entry for you.
In: Endpoint output: Activity_index of Cc1cccc(C)c1OCCOCCNC1CCC(O)CC1.Cl (stereo not given) . Value?
Out: 0.8

* * *

In this section we review reported Activity_index values for a set of compounds.
- ASSAY_COMMENT: Genotoxicity in Salmonella typhimurium TA98 assessed as mutagenic index at 75 ug by AMES test
- Assay type: toxicity, Salmonella enterica subsp. enterica serovar Typhimurium
- TEST_CONTEXT: in vivo; dose 75 µg
I'd appreciate a reply containing only the number, no unit.

In: Would you mind telling me what Activity_index value was observed for Cc1cc(C)c(C)c(OCCN[C@@H]2CCCC[C@H]2O)c1 (racemic) ?
Out: 0.8

In: # Activity_index lookup, item Cc1cc(C)c(C)c(OCCOCCN[C@H]2CCCC[C@@H]2O)c1.Cl (racemic)
Out: 1

In: Given the compound Cc1cccc(C)c1OCCOCCNC1CCC(O)CC1.Cl (stereo not given) , what is its reported Activity_index?
Out: 1

In: Which value of Activity_index has been reported for Cc1ccc(OCCCN2CCCC(O)C2)c(C)c1 (racemic) in the records?
Out: 0.8

In: Would you mind telling me what Activity_index value was observed for `Cc1cc(C)c(C)c(OCCCN2CCC(O)CC2)c1` ?
Out: 1.8

* * *

Listed here: items and their measured Activity.
- ASSAY_COMMENT: Genotoxicity in Salmonella typhimurium TA100 assessed as number of revertant at 200 ug by AMES test (reference value: 64.3 to 130.7)
- Assay type: toxicity, Salmonella enterica subsp. enterica serovar Typhimurium
- TEST_CONTEXT: in vivo; dose 200 µg
Quick one: just the number, no unit, thanks!

{"MOLECULE": "Cc1cccc(C)c1OCCOCCNC1CCC(O)CC1.Cl (stereo not given)", "MEAS_VALUE": 55}
{"MOLECULE": "Cc1cc(C)c(C)c(OCCN[C@@H]2CCCC[C@H]2O)c1 (racemic)", "MEAS_VALUE": 49}
{"MOLECULE": "Cc1cc(C)c(C)c(OCCCN2CCC(O)CC2)c1", "MEAS_VALUE": 42}
{"MOLECULE": "Cc1ccc(OCCCN2CCCC(O)C2)c(C)c1 (racemic)", "MEAS_VALUE": 88.5}

For the next question, use this molecule.
In: Returns the measured Activity for the input molecule. Input: Cc1cc(C)c(C)c(OCCOCCN[C@H]2CCCC[C@@H]2O)c1.Cl (racemic)
Out: 70.5

* * *

- ASSAY_COMMENT: Genotoxicity in Salmonella typhimurium TA98 assessed as number of revertant at 75 ug by AMES test (reference value: 8 to 8.3)
- Type: toxicity, Salmonella enterica subsp. enterica serovar Typhimurium
- TEST_CONTEXT: in vivo; dose 75 µg
OUTCOME_MEASURE: Activity
Quick one: just the number, no unit, thanks!

Sample records with Activity:
{"COMPOUND": "Cc1cc(C)c(C)c(OCCCN2CCC(O)CC2)c1", "MEAS_VALUE": 15.3}
{"COMPOUND": "Cc1cc(C)c(C)c(OCCN[C@@H]2CCCC[C@H]2O)c1 (racemic)", "MEAS_VALUE": 6.3}
{"COMPOUND": "Cc1cc(C)c(C)c(OCCOCCN[C@H]2CCCC[C@@H]2O)c1.Cl (racemic)", "MEAS_VALUE": 8}
{"COMPOUND": "Cc1ccc(OCCCN2CCCC(O)C2)c(C)c1 (racemic)", "MEAS_VALUE": 8}

Pending compound:
In: Give the measured Activity of Cc1cccc(C)c1OCCOCCNC1CCC(O)CC1.Cl (stereo not given) .
Out: 8.3
